- Test system: SNB-19 CNS
- test details: NCI-60 one-dose screen, 48 h (100 = growth as untreated, 0 = no growth, -100 = all killed)
- test context: 10 µM
This is part of a sample that, as a whole, favours compounds with a hit. Of some 83,000 tested, about 20% had one in any assay.
observation type: growth (%)
Lab book: enter the figure in %, no units written.

In [3]: df
Out[3]:
                       compound  observation_type  observed_measurement
0  COc1ccccc1/C=C/C(=O)c1ccccc1            growth                  99.4

Case `O=C1/C(=C\c2ccc(F)cc2)CN(C(=O)c2ccccc2)C/C1=C\c1ccc(F)cc1` , SNB-19 CNS, growth recorded as 61.3

Case `CN(C)c1ccc(-c2cc(-c3cccc(NS(C)(=O)=O)c3)nc(N)c2C#N)cc1` , SNB-19 CNS, growth recorded as 43.3

Case CN1CCC2(CC1)NC(=O)c1c(c3ccc(Cl)c(Cl)c3n1C)C2C#N (stereo unspecified) , SNB-19 CNS, growth recorded as 77.8

Case COc1cc2c(cc1OC)N(CCO)C1=C(C(=O)OC1)C2c1ccc(Cl)c(Cl)c1 (stereo unspecified) , SNB-19 CNS, growth recorded as 98.3

Case COC(=O)C1(C)Cc2cc(OC(C)=O)c(OC(C)=O)cc2N1 (stereo unspecified) , SNB-19 CNS, growth recorded as 105

Case `COc1cc(/C=N/NC(=O)c2ccccc2Nc2cccc(C(F)(F)F)c2)cc(OC)c1OC` , SNB-19 CNS, growth recorded as 61.4
